This section presents compounds with their documented growth, % of control values.
- Experimental Details: qHTS profiling of the MIPE4 collection as inhibitors of Plasmodium falciparum (HB3) proliferation (AID 743347);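 note: plate controls were DMSO vehicle wells for no effect and artemisinin wells for full effect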
- Condition Context: P. falciparum HB3 in erythrocytes, SYBR Green DNA, 72 h; at 28.5 µM (top of the series) unless noted
Quick reminder: number only, in % [at 9.64 µM], skip the unit.

>>> value_measured("Cc1ccc(S(=O)(=O)Nc2nc3ccccc3nc2Nc2ccc3nsnc3c2)cc1")
77.4

Note: attention shifts to another entry.
The measured growth, % of control associated with "CN[C@@H]1CN(c2ccc3c(=O)c(C(=O)O)cn(-c4nccs4)c3n2)C[C@@H]1OC" reads 8.57

The measured values listed here are drawn from PubChem BioAssay (NCATS).
